Recorded aptazyme ON/OFF ratio for the following variants
B1: Pistol ribozyme (parent)
chain: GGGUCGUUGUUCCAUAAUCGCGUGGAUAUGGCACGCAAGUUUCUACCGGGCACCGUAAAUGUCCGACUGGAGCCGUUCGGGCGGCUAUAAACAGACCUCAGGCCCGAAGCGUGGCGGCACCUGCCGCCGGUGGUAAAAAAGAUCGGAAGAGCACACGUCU

- Variants of: B1
- assay-details: aptazyme ON/OFF ratio, guanine; higher = stronger switching; co-transcriptional cleavage with and without guanine
# output: bare number, no unit

Reference set (2 entries):
>>> df
            mutation_name      measured_quantity  recorded_number
0      U7G U10A U11C C12G  aptazyme ON/OFF ratio              1.3
1  U7G U8C U10G U11C C13U  aptazyme ON/OFF ratio              1.4

Field aptazyme ON/OFF ratio (entry U7A U8C G9U U10G ) reads 3.16

Field aptazyme ON/OFF ratio (entry U7C U8G U10G U11C C12A C13A ) reads 1.19
